Target: T1, recombinant human Sortilin (human, UniProt Q99523 78-830)
T1 construct: also called hSort; SORT1
Test: flow cytometry, 10 ug/ml antibody on 293 cells expressing recombinant human Sortilin, PE anti-human secondary
readoutType: MFI binding (MFI)
Express the result in MFI but write the number alone.

Q: Could you tell me which MFI binding is on file for anti-Sortilin antibody S-69 (antibody, V domains shown, Tested as full IgG made in yeast) VH: QVQLQESGPGLVKPSQTLSLTCTVSGGSISSGGYYWSWIRQHPGKGLEWIGYIYYSGSTYYNPSLKSRVTISVDTSKNQFSLKLSSVTAADTAVYYCARDRGGTHFGADHYYYGMDVWGQGTMVTVSS VL: EIVMTQSPATLSVSPGERATLSCRASQSVSSSLAWYQQKPGQAPRLLIYGASTRATGIPARFSGSGSGTEFTLTISSLQSEDFAVYYCQQAADWPITFGGGTKVEIK ?
A: 8580
